Molecular target: human CLDN18.2 (human)
Test: cell-based or functional assay
reported-property: CDC EC50, U2OS-CLDN18.2 target cells (nM)
Use nM as the unit, but write only the number.

Fill in CDC EC50, U2OS-CLDN18.2 target cells for record chimeric antibody xi10D8 (antibody, human IgG1, kappa, V domains shown, Mouse variable regions on human IgG1/kappa; defucosylated, expressed in FUT8-knockout CHO-S cells; also called chimeric 10D8) VH: QIQLAQSGPELKKPGETVKVSCKASGYTFKNYGMNWVKQAPGKGLKWMGWININTGEPRYAEEFKGRIAFSLETSASTAYLLINNLKNEDTATYFCARYGYGNSFPYWGQGTLVTVSA VL: DIVMTQSPSSLTVTVGEKVTMSCKSSQSLLNSGNQRNYLTWYQQKPGQPPKLLIYWASTRESGVPDRFTGSGSGTAFTLTVSSVQAEDLAVYYCQNDYSYPLTFGAGTKLEMKR 11.4

Return the recorded CDC EC50, U2OS-CLDN18.2 target cells value; entry: chimeric antibody xi34G6 (antibody, human IgG1, kappa, V domains shown, Mouse variable regions on human IgG1/kappa; defucosylated, expressed in FUT8-knockout CHO-S cells; also called chimeric 34G6) VH: QVQLKESGPDLVAPSQSLSITCTVSGFSLTSYGVHWVRQPPGKGLEWLVVIWSDGSTTYNSALKSRLSISKDNSKSQVFLKMNSLQTDDTAIYYCARHAYYGNSFDYWGQGTTLTVSS VL: DIVMTQSPSSLTVTAGEKVTMSCKSSQSLLNSGNQKSYLTWYQQKPGQPPKLLIYWASTRESGVPDRFTGSGSGTDFTLTISSVQAEDLAVYYCQNVYIFPLTFGAGTKLELKR 1.77

// fetch CDC EC50, U2OS-CLDN18.2 target cells given entry chimeric antibody xi40F6 (antibody, human IgG1, kappa, V domains shown, Mouse variable regions on human IgG1/kappa; defucosylated, expressed in FUT8-knockout CHO-S cells; also called chimeric 40F6) VH: QVQLKESGPGLVAPSQSLSITCTVSGFSLTSYGVYWVRQSPGKGLEWLGVVWAGGNTNYNSALMSRLSISKDNSKSQVFLKMNSLQTDDTAMYYCARDRGRLLAMDYWGQGTSVTVSS VL: DVVMTQSPSSLSVSAGEKVTMSCKSSQSLLNSGNQKNYLAWYQQKPGQPPKLLIYGASTRESGVPDRFTGSGSGTDFTLTISSVQAEDLAVYYCQNDHFFPFTFGSGTKLEIKR 1.07

Note CDC EC50, U2OS-CLDN18.2 target cells for the binder shown: chimeric antibody xi28G3 (antibody, human IgG1, kappa, V domains shown, Mouse variable regions on human IgG1/kappa; defucosylated, expressed in FUT8-knockout CHO-S cells; also called chimeric 28G3) VH: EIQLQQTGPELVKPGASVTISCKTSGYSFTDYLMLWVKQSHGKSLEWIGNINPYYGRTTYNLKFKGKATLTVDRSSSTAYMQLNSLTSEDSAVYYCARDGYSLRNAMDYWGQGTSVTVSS VL: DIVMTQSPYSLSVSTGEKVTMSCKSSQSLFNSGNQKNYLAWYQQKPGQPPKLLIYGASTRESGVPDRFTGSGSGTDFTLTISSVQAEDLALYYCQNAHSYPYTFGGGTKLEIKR 1.58
